Tested on: human peripheral blood mononuclear cells (lymphocytes)
Experiment: Inhibition of the mitogenic (PHA) stimulation of human lymphocytes (PBMC), [3H]thymidine
Type: cell-based
Settings: Homo sapiens, Lymphocyte; 3 × 10^-4 M; lymphocytes from healthy volunteers; read-out: net inhibitory effect on the mitogenic stimulation of human lymphocytes
Experimental: Buffy coats from the Beilinson Medical Center Blood Bank or 20 mL samples of heparinized venous blood from healthy or atopic donors were used as a source for human peripheral blood mononuclear (PBM) cells. PBM cells were separated by Ficoll-Hypaque density gradient centrifugation. […] The nonadhering cells were stirred gently and carefully collected. PHA (1 μg/mL), indomethacin (5 μg/mL) and various xanthine derivatives were added at initiation of culture. Indomethacin was dissolved in ethanol. […]

{"molecule": "CC(=O)CCCCn1c(=O)c2c(ncn2C)n(C)c1=O", "measured_on": "human peripheral blood mononuclear cells (lymphocytes)", "unit_of_measurement": "%", "inhibition at 300 µM": 46}
{"molecule": "Cn1c(=O)c2c(ncn2CC(O)CO)n(C)c1=O (stereo not shown)", "measured_on": "human peripheral blood mononuclear cells (lymphocytes)", "unit_of_measurement": "%", "inhibition at 300 µM": 12}
{"molecule": "CCCn1cnc2c1c(=O)n(CCCCC(C)=O)c(=O)n2C", "measured_on": "human peripheral blood mononuclear cells (lymphocytes)", "unit_of_measurement": "%", "inhibition at 300 µM": 88}
{"molecule": "Cn1c(=O)c2[nH]cnc2n(C)c1=O", "measured_on": "human peripheral blood mononuclear cells (lymphocytes)", "unit_of_measurement": "%", "inhibition at 300 µM": 37}

---

system: human psoriatic fibroblasts; experiment: Inhibition of human psoriatic fibroblast proliferation; type: cell-based; settings: additional drug 10^-4 M with PTX 10^-3 M
% Inhibition of Proliferation reference
readout_type: % Inhibition of Proliferation (%)

{"compound": "CCCCCC(C)=O [2-Heptanone]", "observed_value": 26.4}
{"compound": "CC(C)(C)CC(=O)O [3,3dimethyl butyricacid, 3,3-dimethylbutyric acid]", "observed_value": 17.2}
{"compound": "CCC(=O)OCC(=O)[C@@]1(OC(=O)CC)[C@@H](C)C[C@H]2[C@@H]3CCC4=CC(=O)C=C[C@]4(C)[C@@]3(F)[C@@H](O)C[C@@]21C [Betamethasone dipropionate, betamethasone dipropionate]", "observed_value": 77.5}
{"compound": "O=C(O)CCCCC1CCSS1 (stereo not shown) [Lipoicacid, lipoic acid]", "observed_value": 50.2}
